Protocol details: Compound metabolic stability in hepatocytes
Assay type: in vitro ADME
Study conditions: hepatocytes from mice and rats (species not given); class symbols without key
Exercise: for every item that follows, state its recorded half-life at 1 µM.

Worked cases, answers included:
O=C(c1ncc(-c2c[nH]c3ncc(N4CCOCC4)cc23)cn1)N1CCCC1c1ccccn1 (centres unmarked) :: < 25 min
c1ccc([C@H]2COC(c3ncc(-c4c[nH]c5ncc(N6CCOCC6)cc45)cn3)=N2)cc1 :: > 25 min
C[C@@H](NC(=O)c1ncc(-c2c[nH]c3ncc(N4CCOCC4)cc23)cn1)c1ccc(Cl)cc1 :: > 25 min
CC(NC(=O)c1ncc(-c2c[nH]c3ncc(N4CCOCC4)cc23)cn1)c1ccccc1 (stereo in doubt) [Compound 6] :: > 25 min
Cc1cccc(C(C)NC(=O)c2ncc(-c3c[nH]c4ncc(N5CCOCC5)cc34)cn2)c1 (stereo in doubt) :: > 25 min

// for each molecule below, give its half-life at 1 µM
1. C[C@@H](NC(=O)c1ncc(-c2c[nH]c3ncc(N4CCOCC4)cc23)cn1)c1cccc(Cl)c1
2. C[C@H](Cc1ccccc1)NC(=O)c1ncc(-c2c[nH]c3ncc(N4CCOCC4)cc23)cn1
3. c1ccc([C@@H]2CN=C(c3ncc(-c4c[nH]c5ncc(N6CCOCC6)cc45)cn3)O2)cc1
4. CC(NC(=O)c1ncc(-c2c[nH]c3ncc(N4CCOCC4)cc23)cn1)c1ccccc1 (stereo in doubt) [Compound 22]
5. c1ccc([C@@H]2COC(c3ncc(-c4c[nH]c5ncc(N6CCOCC6)cc45)cn3)=N2)cc1

Response line:
["> 25 min", "< 25 min", "> 25 min", "> 25 min", "> 25 min"]

Prompt line: Recorded half-life at 1 µM for O=C(NCCc1ccccc1)c1ncc(-c2c[nH]c3ncc(N4CCOCC4)cc23)cn1 , please?
Response line: < 25 min

----------
Tested on: drug-sensitive cell lines of Table 4
Protocol details: Cell line growth retardation assay, average over sensitive cohort
Type: cell-based, Human
Study conditions: Homo sapiens, 144 h; geometric mean of IC50s over sensitive cohort (Table 4); 6 days growth; read-out: AvgSens IC50
pIC50: −log10 of the molar value.
Exercise: for every item that follows, state its recorded pIC50.

Worked cases, answers included:
C[C@@H](NC(=O)c1ncc(-c2c[nH]c3ncc(N4CCOCC4)cc23)cn1)c1cccc(Cl)c1 :: ≥ 6.60
O=C(NCCc1ccc(F)cc1)c1ncc(-c2c[nH]c3ncc(N4CCOCC4)cc23)cn1 :: < 6.30
c1ccc([C@@H]2CN=C(c3ncc(-c4c[nH]c5ncc(N6CCOCC6)cc45)cn3)O2)cc1 :: < 6.30
C[C@@H](NC(=O)c1ncc(-c2c[nH]c3ncc(N4CCOCC4)cc23)cn1)c1cccc(C(F)(F)F)c1 :: 6.30 to 6.60
C[C@@H](NC(=O)c1ncc(-c2c[nH]c3ncc(N4CCOCC4)cc23)cn1)c1ccc(Cl)cc1 :: < 6.30

// for each molecule below, give its pIC50
1. CN(Cc1ccccc1)C(=O)c1ncc(-c2c[nH]c3ncc(N4CCOCC4)cc23)cn1
2. c1ccc([C@H]2CN=C(c3ncc(-c4c[nH]c5ncc(N6CCOCC6)cc45)cn3)N2)cc1

Response line:
< 6.30
< 6.30

----------
Study target: ERK2 (Homo sapiens)
Sequence (P28482 whole entry): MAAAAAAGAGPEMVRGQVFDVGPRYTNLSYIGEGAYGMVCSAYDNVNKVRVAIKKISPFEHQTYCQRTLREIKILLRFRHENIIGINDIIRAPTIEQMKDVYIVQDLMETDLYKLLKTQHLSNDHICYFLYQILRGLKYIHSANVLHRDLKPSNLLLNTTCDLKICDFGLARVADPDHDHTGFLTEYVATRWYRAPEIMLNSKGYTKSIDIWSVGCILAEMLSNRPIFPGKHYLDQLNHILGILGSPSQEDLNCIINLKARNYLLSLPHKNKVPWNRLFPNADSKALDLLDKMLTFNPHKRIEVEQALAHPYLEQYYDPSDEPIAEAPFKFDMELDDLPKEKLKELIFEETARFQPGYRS
Reported metric: Kd

Worked cases, answers included:
c1ccc([C@H]2COC(c3ncc(-c4c[nH]c5ncc(N6CCOCC6)cc45)cn3)=N2)cc1 :: ≤ 10 nM
C[C@H](NC(=O)c1ncc(-c2c[nH]c3ncc(NCCO)cc23)cn1)c1ccccc1 :: 11 to 100 nM
O=C(c1ncc(-c2c[nH]c3ncc(N4CCOCC4)cc23)cn1)N1CCC[C@H]1c1ccccc1 :: > 100 nM
C[C@H]1N=C(c2ncc(-c3c[nH]c4ncc(N5CCOCC5)cc34)cn2)O[C@H]1c1ccccc1 :: 11 to 100 nM
CC(NC(=O)c1ncc(-c2c[nH]c3ncc(N4CCOC(C)(C)C4)cc23)cn1)c1ccccc1 (stereo in doubt) :: 11 to 100 nM
CC(NC(=O)c1ncc(-c2c[nH]c3ncc(N4CCOCC4)cc23)cn1)c1ccccc1 (stereo in doubt) [Compound 22] :: > 100 nM

Prompt line: Kd of C[C@@H](NC(=O)c1ncc(-c2c[nH]c3ncc(N4CCOCC4)cc23)cn1)c1cccc(Cl)c1 on ERK2 (Homo sapiens)?
Response line: ≤ 10 nM
